Each entry below lists one item and its recorded Rf value.
# Assay Overview: Retardation factor of the compound using EtOH-H2O at ratio of 7:3 as solvent system by thin layer chromatography
# Assay type: physicochemical
Respond using a number only.

// Rf lookup, compound = CC(C)C[C@H](NC(=O)[C@@H](C)NC(=O)[C@H](Cc1ccc(O)cc1)NC(=O)[C@H](CO)NC(=O)[C@@H](NC(=O)[C@@H](NC(=O)[C@@H]1CCC(=O)N1)C(C)C)C(C)C)C(=O)N[C@@H](CCCNC(=N)N)C(=O)N1CCC[C@H]1C(=O)NCC(N)=O , result: 0.62

In plain terms, CC(C)C[C@H](NC(=O)[C@@H](NC(=O)[C@@H]1CCC(=O)N1)C(C)C)C(=O)N[C@@H](CO)C(=O)N[C@@H](Cc1ccc(O)cc1)C(=O)N[C@H](C)C(=O)N[C@@H](CC(C)C)C(=O)N[C@@H](CCCNC(=N)N)C(=O)N1CCC[C@H]1C(=O)NCC(N)=O has a documented Rf of 0.62

Rf reported for this compound CC(C)C[C@H](NC(=O)[C@@H]1CCC(=O)N1)C(=O)N[C@H](C(=O)N[C@@H](CO)C(=O)N[C@@H](Cc1ccc(O)cc1)C(=O)N[C@H](C)C(=O)N[C@@H](CC(C)C)C(=O)N[C@@H](CCCNC(=N)N)C(=O)N1CCC[C@H]1C(=O)NCC(N)=O)C(C)C : 0.62

GET /value?item= CC(C)C[C@H](NC(=O)[C@@H]1CCC(=O)N1)C(=O)N[C@@H](CC(C)C)C(=O)N[C@@H](CO)C(=O)N[C@@H](Cc1ccc(O)cc1)C(=O)N[C@H](C)C(=O)N[C@@H](CC(C)C)C(=O)N[C@@H](CCCNC(=N)N)C(=O)N1CCC[C@H]1C(=O)NCC(N)=O &field=Rf returns 0.63
